- Species on record: Rattus norvegicus
- MEASUREMENT_NOTES: Antagonistic activity against NMDA-induced response in rat cortical slice
- Type: functional

{"COMPOUND": "O=C(c1c(O)nc2cc(Cl)ccc2c1O)C1CC1", "UNITS_TEXT": "µM", "Kb": 3.39}
{"COMPOUND": "O=C(Cc1ccccc1)c1c(O)c2ccc(Cl)cc2[nH]c1=O", "UNITS_TEXT": "µM", "Kb": 3.92}
{"COMPOUND": "CCOC(=O)C1C(=O)Nc2cc(Cl)ccc2C1=O (centres undefined)", "UNITS_TEXT": "µM", "Kb": 65.4}
{"COMPOUND": "COC(=O)C1C(=O)Nc2cc(Cl)ccc21 (centres undefined)", "UNITS_TEXT": "µM", "Kb": 441}

* * *

- SUBJECT_OF_TEST: Glutamate NMDA receptor
- MEASUREMENT_NOTES: Binding affinity towards NMDA receptor to displace [3H]-L-689,560 from rat cortical membranes
pIC50: −log10 of the molar value.
Items are presented alongside their recorded pIC50.

{"COMPOUND": "O=C(c1cccnc1)c1c(O)nc2cc(Cl)ccc2c1O", "RESULT_QUALIFIER": "=", "pIC50": 5.16}
{"COMPOUND": "O=C(NOCc1ccccc1)c1c(O)nc2cc(Cl)ccc2c1O", "RESULT_QUALIFIER": "<", "pIC50": 4.00}
{"COMPOUND": "O=C(OCCc1ccccc1O)c1c(O)nc2cc(Cl)ccc2c1O", "RESULT_QUALIFIER": "=", "pIC50": 5.15}
{"COMPOUND": "O=C(CCc1ccccc1)c1c(O)nc2cc(Cl)ccc2c1O", "RESULT_QUALIFIER": "<", "pIC50": 4.00}
{"COMPOUND": "CCOC(=O)c1c(O)nc2cc(C#N)ccc2c1O", "RESULT_QUALIFIER": "=", "pIC50": 4.59}
{"COMPOUND": "CCOC(=O)C1Oc2ccc(Cl)cc2NC1=O (configuration not stated)", "RESULT_QUALIFIER": "<", "pIC50": 4.00}
{"COMPOUND": "CCOC(=O)c1c(O)nc2ccccc2c1O", "RESULT_QUALIFIER": "<", "pIC50": 4.00}
{"COMPOUND": "COC(=O)c1c(O)c2ccc(Cl)cc2[nH]c1=O", "RESULT_QUALIFIER": "=", "pIC50": 5.19}
{"COMPOUND": "O=C(OCCCCc1cccc(O)c1)c1c(O)nc2cc(Cl)ccc2c1O", "RESULT_QUALIFIER": "=", "pIC50": 5.58}
{"COMPOUND": "COc1cccc(C#CCOC(=O)c2c(O)nc3cc(Cl)ccc3c2O)c1", "RESULT_QUALIFIER": "=", "pIC50": 6.57}
{"COMPOUND": "O=C(NCCc1ccc(O)cc1)c1c(O)nc2cc(Cl)ccc2c1O", "RESULT_QUALIFIER": "<", "pIC50": 4.00}
{"COMPOUND": "O=C(OCCc1c[nH]c2ccccc12)c1c(O)nc2cc(Cl)ccc2c1O", "RESULT_QUALIFIER": "=", "pIC50": 6.37}

* * *

- SUBJECT_OF_TEST: Glutamate NMDA receptor
- MEASUREMENT_NOTES: Binding affinity towards NMDA receptor to displace [3H]-L-689,560 from rat cortical membranes
ENDPOINT: log10 IC50 (log10 of the value in µM)

{"COMPOUND": "CON(C)C(=O)c1c(O)nc2cc(Cl)ccc2c1O", "log10 IC50": 1.67}
{"COMPOUND": "COC(=O)C1C(=O)Nc2cc(Cl)ccc2S1(=O)=O (stereo not given)", "log10 IC50": 1.13}
{"COMPOUND": "O=C(c1ccco1)c1c(O)nc2cc(Cl)ccc2c1O", "log10 IC50": 0.38}
{"COMPOUND": "C#CCOC(=O)c1c(O)nc2cc(Cl)ccc2c1O", "log10 IC50": 0.95}
{"COMPOUND": "O=C(OCCc1cccc(O)c1)c1c(O)nc2cc(Cl)ccc2c1O", "log10 IC50": 0.26}
{"COMPOUND": "O=C1Nc2cc(Cl)ccc2C(=O)C1C(=O)c1ccccc1 (stereo not given)", "log10 IC50": 0.50}
{"COMPOUND": "O=C(NO)c1c(O)nc2cc(Cl)ccc2c1O", "log10 IC50": 0.80}
{"COMPOUND": "O=C(OCCCc1cccc(O)c1)c1c(O)nc2cc(Cl)ccc2c1O", "log10 IC50": 0.42}
{"COMPOUND": "O=C(OCc1cccc(O)c1)c1c(O)nc2cc(Cl)ccc2c1O", "log10 IC50": 0.79}
{"COMPOUND": "O=C(c1ccsc1)c1c(O)nc2cc(Cl)ccc2c1O", "log10 IC50": 0.29}
{"COMPOUND": "O=C(Cc1ccccc1)c1c(O)c2ccc(Cl)cc2[nH]c1=O", "log10 IC50": -0.03}
{"COMPOUND": "C=CCOC(=O)c1c(O)c2ccc(Cl)cc2[nH]c1=O", "log10 IC50": 0.81}
{"COMPOUND": "CCOC(=O)c1c(O)nc2cc([N+](=O)[O-])c([N+](=O)[O-])cc2c1O", "log10 IC50": 1.02}
{"COMPOUND": "O=C(OCCc1ccccn1)c1c(O)nc2cc(Cl)ccc2c1O", "log10 IC50": 1.44}
{"COMPOUND": "CONC(=O)c1c(O)nc2cc(Cl)ccc2c1O", "log10 IC50": 0.49}
{"COMPOUND": "O=C(Cc1cccs1)c1c(O)nc2cc(Cl)ccc2c1O", "log10 IC50": 0.03}
{"COMPOUND": "CCOC(=O)c1c(O)nc2cc(C(F)(F)F)ccc2c1O", "log10 IC50": 1.09}
{"COMPOUND": "O=C(OCCc1ccc(O)cc1)c1c(O)nc2cc(Cl)ccc2c1O", "log10 IC50": 0.47}
{"COMPOUND": "CCOC(=O)C1C(=O)Nc2cc(Cl)ccc2C1=O (stereo not given)", "log10 IC50": 1.22}
{"COMPOUND": "CCOC(=O)c1c(O)c2ccc([N+](=O)[O-])cc2[nH]c1=O", "log10 IC50": 1.40}
{"COMPOUND": "O=C(OCCc1cccs1)c1c(O)nc2cc(Cl)ccc2c1O", "log10 IC50": 0.48}
{"COMPOUND": "O=C(c1c(O)nc2cc(Cl)ccc2c1O)N(O)CCc1ccccc1", "log10 IC50": 0.97}
{"COMPOUND": "O=C(OCC#Cc1cccc(O)c1)c1c(O)c2ccc(Cl)cc2[nH]c1=O", "log10 IC50": -0.77}

* * *

- SUBJECT_OF_TEST: Glutamate NMDA receptor
- MEASUREMENT_NOTES: Binding affinity towards NMDA receptor to displace [3H]-L-689,560 from rat cortical membranes
ENDPOINT: IC50

{"COMPOUND": "O=C1CC(=O)c2ccc(Cl)cc2N1", "RESULT": "> 100 µM"}
{"COMPOUND": "CC(=O)c1c(O)nc2cc(Cl)ccc2c1O", "RESULT": "> 100 µM"}
{"COMPOUND": "CN(Cc1ccccc1)C(=O)c1c(O)nc2cc(Cl)ccc2c1O", "RESULT": "> 100 µM"}
{"COMPOUND": "O=C1CS(=O)(=O)c2ccc(Cl)cc2N1", "RESULT": "> 100 µM"}
{"COMPOUND": "CCOC(=O)c1c(O)nc2cccc(C)c2c1O", "RESULT": "> 1000 µM"}
{"COMPOUND": "COC(=O)C1C(=O)Nc2cc(Cl)ccc21 (configuration not stated)", "RESULT": "> 100 µM"}
{"COMPOUND": "NC(=O)c1c(O)nc2cc(Cl)ccc2c1O", "RESULT": "> 100 µM"}
{"COMPOUND": "CCOC(=O)c1c(O)nc2c(C)cccc2c1O", "RESULT": "> 100 µM"}
{"COMPOUND": "CCCOC(=O)c1c(O)nc2cc(Cl)ccc2c1O", "RESULT": "> 100 µM"}
{"COMPOUND": "O=C(c1c(O)nc2cc(Cl)ccc2c1O)C1CCCCC1", "RESULT": "> 100 µM"}
{"COMPOUND": "O=C(SCCc1ccccc1)c1c(O)nc2cc(Cl)ccc2c1O", "RESULT": "> 10 µM"}
{"COMPOUND": "CCOC(=O)c1c(O)nc2ccc(Cl)cc2c1O", "RESULT": "> 100 µM"}

Hey, just so you know, these numbers are from ChEMBL document CHEMBL1126880.
